measured.target: Fibroblast growth factor 10 (Homo sapiens)
protocol.description: FGF10 binders on small-molecule microarrays, primary screen, biochemical, small-molecule microarray, 635 nm fluorescence (AID 1102)
condition.notes: FGF10 binding, fluorescence 635 nm, higher = more signal
Our labelling divides records by composite z-score into ranges: band A: < 0.1; band B: ≥ 0.1 and < 0.5; band C: ≥ 0.5

Known results for compounds:
{"compound": "CO[C@H]1O[C@H](CO)[C@@H](OC(=O)CCc2ccccc2)[C@@H]2OC(=O)[C@H](Cc3cccc(Br)c3)C/C=C/C[C@@H](Cc3cccc(Br)c3)C(=O)O[C@@H]12", "class": "band A"}
{"compound": "COc1ccc(C(O)C2C=CC3C(=O)N(C)C(=O)C3N2N2CCCCC2)cc1OCc1ccccc1 (centres undefined)", "class": "band B"}
{"compound": "CO[C@@H]1COC(=O)CC=C[C@H](C)COC(=O)[C@H](Cc2ccccc2)NC(=O)CC=C[C@H]1C", "class": "band B"}
{"compound": "CC(C)[Si](OCC[C@H]1O[C@]2(C(=O)N(Cc3ccccc3)c3ccccc32)[C@@H](C)[C@@H]1[Si](C)(C)O)(C(C)C)C(C)C", "class": "band A"}
{"compound": "C[C@]1(C(=O)NCCN2CCOCC2)c2ccccc2C(=O)N(Cc2ccccc2)[C@H]1c1ccc(CO)cc1", "class": "band A"}
{"compound": "CO[C@H]1COC(=O)CC=C[C@H](C)[C@@H](OC)COC(=O)CC=C[C@@H]1C", "class": "band C"}
{"compound": "CCOC(=O)C1=CCC(c2cccc3ccccc23)N(S(=O)(=O)c2ccc(C)cc2)C1 (centres undefined)", "class": "band B"}
{"compound": "COC(=O)C[C@H]1O[C@]2(C(=O)N(Cc3ccccc3)c3ccc(I)cc32)[C@@H](C)[C@@H]1[Si](C)(C)c1ccc(OC)cc1", "class": "band A"}
{"compound": "CC(C)=C1C(=O)C(c2ccccc2)=C2CN3C(=O)N(CCc4ccccc4)C(=O)[C@]3(Cc3ccccc3)[C@H]21", "class": "band A"}
{"compound": "O=C1C2C=CC(C(O)C(c3ccccc3)c3ccccc3)N(Nc3ccc([N+](=O)[O-])cc3)C2C(=O)N1c1ccccc1 (centres undefined)", "class": "band C"}

Q: Into which category would you place C[C@H]1NC(=O)[C@@H](C)NC(=O)[C@@]23C(=O)N[C@@H](Cc4ccccc4)C2[C@H](C)[C@@]2(C)O[C@H]2C3/C=C/C/C=C\CNC1=O (some centres undefined) ?
Ans: band B

Q: Another compound to look at: "CO[C@H]1O[C@H](CO)[C@@H](OC(=O)Nc2ccccc2)[C@H](OC(=O)Nc2ccc3c(c2)OCO3)[C@@H]1OC(=O)Nc1ccc2c(c1)OCO2"
Ans: band B

---

measured.target: Torsin-1A-interacting protein 1 (Homo sapiens) (UniProt Q5JTV8)
Sequence (Q5JTV8 whole entry, looked up): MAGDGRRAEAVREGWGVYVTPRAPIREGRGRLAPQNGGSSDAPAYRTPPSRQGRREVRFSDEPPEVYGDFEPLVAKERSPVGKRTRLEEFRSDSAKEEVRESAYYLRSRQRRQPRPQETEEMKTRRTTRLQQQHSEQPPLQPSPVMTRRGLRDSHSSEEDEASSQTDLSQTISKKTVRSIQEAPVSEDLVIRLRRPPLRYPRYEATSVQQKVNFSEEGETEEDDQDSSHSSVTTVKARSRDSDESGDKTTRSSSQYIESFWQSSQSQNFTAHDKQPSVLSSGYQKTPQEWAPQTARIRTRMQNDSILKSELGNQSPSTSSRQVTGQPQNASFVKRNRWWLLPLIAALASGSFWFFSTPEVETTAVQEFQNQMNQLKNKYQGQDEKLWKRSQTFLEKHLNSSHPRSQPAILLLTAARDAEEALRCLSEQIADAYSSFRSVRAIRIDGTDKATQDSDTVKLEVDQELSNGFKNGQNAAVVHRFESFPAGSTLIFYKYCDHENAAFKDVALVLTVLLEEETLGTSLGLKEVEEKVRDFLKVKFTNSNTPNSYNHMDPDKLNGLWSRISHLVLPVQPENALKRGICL
protocol.description: LAP1 binders from COS7 cell lysate, primary screen, small-molecule microarray, 635/667 nm fluorescence (AID 1116)
condition.notes: COS7-hLAP1 lysate binding, 635 nm fluorescence, higher = more signal
measured.attribute: composite z-score
Numbers only.

{"compound": "COC(=O)C1=CC(c2ccc(CO)cc2)=CC(C2CC2)N(Cc2sc3ccccc3c2Cl)C=C1C(=O)OC (centres undefined)", "composite z-score": 2.42}
{"compound": "C[C@@H]1C=CCC(=O)OC[C@H]2O[C@@H](C=C[C@@H]2O)[C@H](C)C=CCC(=O)OC[C@H]2O[C@H]1C=C[C@@H]2O", "composite z-score": 0.196}
{"compound": "CO[C@H]1COC(=O)[C@H](C)NC(=O)CC=C[C@@H](C)[C@H](NS(=O)(=O)c2ccc(C)cc2)COC(=O)[C@@H](OCc2ccccc2)C=C[C@@H]1C", "composite z-score": -0.141}

Let us move to another entry and its composite z-score.
Q: Entry "COc1ccc(C(=O)Nc2ccc(CN3C(=O)[C@]4(O[C@H](CCn5cc(CCO)nn5)[C@@H]([Si](C)(C)c5ccc(OC)cc5)[C@@H]4C)c4ccccc43)cc2)cc1" , system Torsin-1A-interacting protein 1 (Homo sapiens) (UniProt Q5JTV8): what composite z-score was measured?
Ans: 0.793
